- subject of test: T1, biotinylated human PD-L1-mFc (human, biotinylated (sites not given))
- T1 construct: also called PDL-1-mFc-biotin
- test name: competition ELISA: blocks PD-L1-mFc-biotin binding to coated PD-1-hFc
measurement name: IC50 (mg/L)
Number only, in mg/L; omit the unit.

Use these answered entries as a reference point.
binder="m5G11 (antibody, V domains shown, Murine hybridoma IgG (printed 'mIgG'); also called 5G11-mIgG; 5G11 murine) VH: QVQLKQSGPGLVQPSQSLSITCTVSGFSLTTYGVHWVRQSPGKGLEWLGVIWRGVTTDYNAAFMSRLTITKDNSKSQVFFKMNSLQANDTAIYYCARLGFYAMDYWGQGTSVTVSS VL: SIVMTQTPKFLLVSAGDRVTITCKASQSVSNDVAWYQQKPGQSPKLLIYYAANRYTGVPDRFTGSGYGTDFTFTISIVQAEDLAVYFCQQDYTSPYTFGGGTKLEIK" measurement_name=IC50 units=mg/L readout_value=0.71
binder="m4A8 (antibody, V domains shown, Murine hybridoma IgG (printed 'mIgG'); also called 4A8-mIgG; 4A8 murine) VH: QVQLKQSGPGLVQPSQSLSITCTVSGFSLTSYGVHWVRQSPGKGLEWLGVIWSGGITDYNAAFKSRLSISKDNSKSQVFFKMNSLQANDTAIYFCARLGFYAMDYWGQGTSVTVSS VL: QIVLTQSPAIMSASPGEKVTMTCSANSSVSYMHWYQQKSGTSPKRWIYDTSKLASGVPARFSGSGSGTSYSLTISSMGAEDAATYYCQQWSSNPWTFGGGTKLEIK" measurement_name=IC50 units=mg/L readout_value=0.868
binder="m8H4 (antibody, V domains shown, Murine hybridoma IgG (printed 'mIgG'); also called 8H4-mIgG; 8H4 murine) VH: EVKLVESGGGLVKPGGSLKLSCAASGFTFRSYGMSWARQIPEKRLEWVASISSGGTTYYLGSVQGRFTISRDNARNILYLQMSSLRSEDTAMYYCARGYDAGFAYWGQGTLVSVSE VL: DIVLTQSPASLAVSLGQRATISCRASQSVSTSSYSYMHWYQQKPGQPPKLLIKYASNLESGVPARFSGSGSGTDFTLNIHPVEEEDTATYYCQNSWEIPYTFGGGTKLEIK" measurement_name=IC50 units=mg/L readout_value=0.788

The binder listed as m8C6 (antibody, V domains shown, Murine hybridoma IgG (printed 'mIgG'); also called 8C6-mIgG; 8C6 murine) VH: QVQLKQSGPGLVQPSQSLSITCTVSGFSLTSYGVHWVRQSPGKGLEWLGVIWSGGVTDYNAAFISRLSISKDNSKSQVFFKMNSLQANDTAIYYCARLGFYAMDYWGQGTSVTVSS VL: SIVMTQTPKFLLVSAGDRVTITCKASQSVSNDVGWYQQKPGQSPKLLIYYASNRYSGVPDRFTGSGYGTDFTFTISTVQAEDLAVYFCQQDYTSPYTFGGGTKLEIK has a reported IC50 of 0.344

Lab note: measured IC50 of m7B4 (antibody, V domains shown, Murine hybridoma IgG (printed 'mIgG'); also called 7B4-mIgG; 7B4 murine) VH: EVKLFESGGGLVQPGGSLKLSCVASGFDFSTYWMHWVRQAPGQGLEWIGQINPDSTTINYAPSLKDRFIISRDNAKNTLFLQMSKVRSEDTALYYCAKPGDYGYDFDCWGQGTTLTVSS VL: DVLMTQTPLYLPVSLGDQASISCRSSQIIVHSNANTYLEWFLQKPGQSPKLLIYKVSNRFSGVPDRFSGSGSGTDFTLKISRVEAEDLGVYYCFQGSHVPYTFGGGTKLEIK was 0.892
